measured-on: Cytochrome P450 3A4 (Homo sapiens, UniProt P08684)
Sequence (P08684 whole entry): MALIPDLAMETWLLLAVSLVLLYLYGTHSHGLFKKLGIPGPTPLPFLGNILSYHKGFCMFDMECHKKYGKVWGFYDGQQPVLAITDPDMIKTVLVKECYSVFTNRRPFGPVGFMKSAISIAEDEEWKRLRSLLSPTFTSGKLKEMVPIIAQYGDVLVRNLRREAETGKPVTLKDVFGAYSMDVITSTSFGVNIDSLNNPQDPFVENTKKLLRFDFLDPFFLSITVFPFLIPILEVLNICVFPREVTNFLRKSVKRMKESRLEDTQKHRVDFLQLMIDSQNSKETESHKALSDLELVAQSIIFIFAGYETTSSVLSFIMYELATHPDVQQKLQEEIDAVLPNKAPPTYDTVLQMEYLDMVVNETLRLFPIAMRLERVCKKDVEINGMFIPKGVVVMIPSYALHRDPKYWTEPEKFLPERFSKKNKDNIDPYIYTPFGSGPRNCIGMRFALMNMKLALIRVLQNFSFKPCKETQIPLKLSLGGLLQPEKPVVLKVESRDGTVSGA
experimental-details: Inhibition against Cytochrome P450 3A4 prepared from baculovirus-infected insect cells using resorufin benzyl ether
Format: ADME
For each record, write down the corresponding IC50.
// return numeric value only (unit: µM, not printed)

So for N#CCn1c(=O)c(CCO)c(-c2cc(Cl)ccc2O)c2cc(C(F)(F)F)ccc21 , the logged IC50 turned out to be 18

Lab book: IC50 of NC(=O)Cn1c(=O)c(CCO)c(-c2cc(Cl)ccc2O)c2cc(C(F)(F)F)ccc21 noted as 50

Record O=c1c(CCO)c(-c2cc(Cl)ccc2O)c2cc(C(F)(F)F)ccc2n1Cc1nn[nH]n1 . Reported IC50: 13

Origin of the recorded values: ChEMBL document CHEMBL1141054
